System: Plasmodium berghei
Assay: Screen against P. berghei liver stage (PbLuc), transformed with Luciferase, at 10uM
Format: functional, HepG2
Settings: tested at 10 uM
Hit rate of the full screen: of about 69,000 compounds, about 8,600 (12%) showed an effect of 50% or more. What follows is part of a selection rich in strong results, with near analogues and random picks from the rest.

| Compound | INHIBITION, % |
| --- | --- |
| CCC(C)N(Cc1cnc(NC(C)C)nc1)Cc1ccsc1 (stereo unspecified) | 30.4 |
| CNC(=O)C(C)(C)NC(=O)c1cc(COc2ccccc2OC)[nH]n1 | 63.7 |
| COc1cccc(OCc2cc(C(=O)NC[C@@H]3CCCN3)n[nH]2)c1 | 14.9 |
| COCCc1noc(CN(C)c2nc(C)nc(C)c2C)n1 | 47.6 |
| COc1cccc(OCc2cc(C(=O)NC[C@H]3CCCN3)n[nH]2)c1 | 25.4 |
| COc1ccccc1OCc1cc(C(=O)NC[C@@H]2CCCN2)n[nH]1 | 82.9 |

---

Each item that follows carries a reported INHIBITION.
System: Plasmodium berghei
Experiment: Screen against P. berghei liver stage (PbLuc), transformed with Luciferase, at 10uM
Assay type: functional, HepG2
Conditions: tested at 10 uM
Among all 69,000 compounds or so, about 8,600 (12%) showed an effect of 50% or more. The sample holds strong results, similar compounds and a random draw of the others, so the mix is not that of the screen.

| Compound | INHIBITION, % |
| --- | --- |
| O=C1CCC(=O)c2oc3ccc(Cl)cc3c2N1 | 34.2 |
| COCCN(Cc1cccs1)c1nc(CCN)nc2ccccc12 | -17.3 |
| COCC(=O)N1Cc2nccn2CC(COc2cccnc2)C1 (configuration not stated) | 29.3 |
| COCCN(CC1CC1)c1nc(CCN)nc2sc(C)c(C)c12 | 65.3 |
| Cc1cnc(CN(C)C2CCN(CCCc3cnn(C)c3)C2)o1 (configuration not stated) | 48.2 |
| O=S(=O)(c1c(N2CCCCC2)ccc2nonc12)N1CCCCC1 | 8.41 |
| CC(CN1CCOCC1)n1cncc1-c1cnn(Cc2ccccc2)c1 (configuration not stated) | -3.135 |
| COCCN(CC1CC1)c1nc(CCN)nc2ccccc12 | 16.2 |
| COc1cc(NC2CCS(=O)(=O)C2)ncn1 (configuration not stated) | 33.7 |
| CCc1nn(C)c(Cl)c1CN(CC)Cc1cnn(CC)c1 | -21.9 |
| Cc1cc(C(=O)N2CCC3(CC2)C(=O)N(C)CCN3CC(C)C)c(C)o1 | 49.4 |
| CCCc1nc(NCCOC)c2c(n1)c(C)nn2CC | 17 |

---

Tested on: Plasmodium berghei
Assay: Screen against P. berghei liver stage (PbLuc), transformed with Luciferase, at 10uM
Type: functional, HepG2
Details: tested at 10 uM
Hit rate of the full screen: of about 69,000 compounds, about 8,600 (12%) showed an effect of 50% or more. The full list was thinned out, with strong results kept by preference.
Threshold rule: INHIBITION greater than or equal to 30% is MET; below that, NOT MET.

| Molecule | Class |
| --- | --- |
| O=C1CCC(CCC(=O)N2CCC2c2cccs2)=NN1 (centres undefined) | NOT MET |
| Cc1ccc(-c2[nH][nH]c(=O)c2CCN)cc1 | MET |
| CCN(C)C[C@@H]1CN(S(=O)(=O)c2cccc(Cl)c2)C[C@@H]1CO | MET |
| Cc1ncsc1C(=O)NC1CCN(Cc2ccc(C(F)(F)F)cc2)CC1 | MET |
| O=C(CCc1ccncc1)NCc1csc(Br)c1 | NOT MET |
| CCN(C)C[C@@H]1CN(S(=O)(=O)c2ccc(OC)cc2)C[C@@H]1CO | MET |
| CN(Cc1nnc(C2CC2)n1C)C1CCN(CCc2cnn(C)c2)C1 (centres undefined) | NOT MET |
| Cc1ccc(C)c(-c2[nH]c3ccccc3c2C(=O)O)c1 | NOT MET |
| Cc1sc2c(C3CCNCC3)nc(Nc3cccc(F)c3)n2c1C | MET |
| c1cnc(-c2nn3c(CN4CCOCC4)nnc3s2)cn1 | NOT MET |
| O=C1CCN(CCS(=O)(=O)c2ccc(Cl)cc2)CCN1 | NOT MET |
| CC(C)Cn1cc2nc(N3CCCC3)[nH]cc-2c1=O | MET |
| O=C1CCC2(CCCN(C(=O)Cc3cccnc3)C2)N1 (centres undefined) | NOT MET |
| CCOc1cc2c(cc1CN1CCC3(CC1)CNC(=O)C3)CCC2 | MET |
| CCN(C)C[C@@H]1CN(Cc2cccc(Cl)c2)C[C@@H]1CO | MET |
| CC(=O)N1CCc2ccc(NC(=O)c3cn(C)nn3)cc2C1 | NOT MET |
| Cc1ncsc1CN1C[C@@H](OCC(=O)N(C)C)[C@H]2OCCC[C@H]21 | NOT MET |
| C[C@H](NC(=O)N1CCC(Cc2ccccc2)CC1)C(=O)O | NOT MET |
| Cc1occc1C(=O)N1CCCC1c1ccc(C(=O)N2CCOCC2)s1 (centres undefined) | NOT MET |
| Cc1nnc2n1CCN(Cc1csc(COc3ccccc3)n1)C2 | NOT MET |
| CSc1ncccc1C(=O)N1CCCC1c1ccc(C(=O)N(C)C)s1 (centres undefined) | MET |
| O=C(NC1CCN(c2ncccn2)CC1)c1cc2c([nH]c1=O)CCC2 | NOT MET |
| O=C(NC1CCN(c2ncccn2)CC1)c1cc2c(cc1O)CCCC2 | MET |
| CCN(C)C[C@@H]1CN(S(=O)(=O)c2cccc(C#N)c2)C[C@@H]1CO | MET |

---

System: Plasmodium berghei
Experiment: Screen against P. berghei liver stage (PbLuc), transformed with Luciferase, at 10uM
Assay type: functional, HepG2
Conditions: tested at 10 uM
Hit rate of the full screen: of about 69,000 compounds, about 8,600 (12%) showed an effect of 50% or more. The full list was thinned out, with strong results kept by preference.
Each item that follows carries a reported INHIBITION.

| Compound | Tested system | INHIBITION (%) |
| --- | --- | --- |
| COCC[C@]1(O)CCN(C(=O)CCn2c(C)cccc2=O)C[C@H]1C | Plasmodium berghei | 1.94 |
| Cn1cc(CN2CCCC(c3nc(O)cc(-c4cccs4)n3)C2)cn1 (stereo unspecified) | Plasmodium berghei | -15.1 |
| CNC(=O)c1cc2c(nc1NCC(C)C)CCN(c1ccncn1)CC2 | Plasmodium berghei | -38.7 |
| CNC(=O)c1cn[nH]c1C1(C)CCCN(CC2(O)CCCCC2)C1 (stereo unspecified) | Plasmodium berghei | 29.2 |
| CNC(=O)c1cn[nH]c1C1(C)CCCN(Cc2ccccc2OC)C1 (stereo unspecified) | Plasmodium berghei | 72.5 |
| CNC(=O)c1cn[nH]c1C1(C)CCCN(Cc2ccccn2)C1 (stereo unspecified) | Plasmodium berghei | 17.1 |

---

Test system: Plasmodium berghei
Assay: Screen against P. berghei liver stage (PbLuc), transformed with Luciferase, at 10uM
Assay type: functional, HepG2
Conditions: tested at 10 uM
About 8,600 (12%) of roughly 69,000 compounds showed an effect of 50% or more. Many of the other results were omitted from the sample, so strong results are more common in it than they were.
Metric: INHIBITION (%)

| Compound | Recorded number |
| --- | --- |
| Cc1ccc(C)c(CS(=O)(=O)CC(=O)NCCCOC(C)C)c1 | -2.19 |
| CSC1(CNC(=O)N(C)Cc2ccc(C)s2)CCOCC1 | 57.3 |
| CSC1(CNC(=O)N(C)Cc2ccc(Cl)s2)CCOCC1 | 19.1 |
| CCc1nc(C2CCCN2C(=O)CCc2c(C)noc2Cl)no1 (stereo not drawn) | 1.78 |
| Cc1nc(CN2C[C@@H](NC(=O)C3CCC3)[C@H]3COC[C@H]32)cs1 | -10.5 |
| O=C(Cc1cccc(F)c1)NCCNCc1cccnc1 | 33.3 |
| CNC(=O)CN(C(=O)c1ccccc1)[C@H]1C[C@H]2CCOC[C@H]2C1 | 8.61 |
| CN1N=C(C(=O)N2CCCC(n3cccn3)C2)CCC1=O (stereo not drawn) | 11.9 |
| CC(=O)N1CC(=O)N(c2cnn(C)c2)CC12CCN(Cc1ccco1)C2 (stereo not drawn) | 29.7 |
| O=C(C1CCC1)N1C2CCC(O)(CC2)C1CN1CCOCC1 (stereo not drawn) | 16.2 |
| Cc1ccc(CNCc2nnc3n2CC(C(F)(F)F)CC3)cc1 (stereo not drawn) | 45.1 |
| COc1ccc(S(=O)(=O)N2CCc3ccc(Cl)cc32)cc1C(=O)O | -54.6 |
| Cc1cccc(CNC(C)c2ccc(OCC(=O)NC3CC3)cc2)c1 (stereo not drawn) | 15.3 |
| CC1=CC[C@@H]2CN(C(=O)c3ccc(-c4cc[nH]n4)cc3)C[C@@H]2C1 | -37.1 |
| Cc1nccn1C1CCCN(C(=O)C2=NN(C)C(=O)CC2)C1 (stereo not drawn) | 51.6 |
| CCc1nccn1C1CCCN(C(=O)c2ccn(C)c(=O)c2)C1 (stereo not drawn) | 2.9 |
| O=C1[C@H]2CN(C(=O)[C@H]3CCCO3)C[C@H]2CN1CCN1CCCC1 | 1.34 |
| O=C(O)c1ccccc1-n1cc(CN2CCOC(c3cc[nH]n3)C2)cn1 (stereo not drawn) | 20.7 |
| CSC1(CNC(=O)N(C)Cc2sccc2C)CCOCC1 | 43.4 |
| CN(C)c1cc2c(nn1)CCN(C(=O)C1Cc3ccccc3O1)C2 (stereo not drawn) | 56.4 |
| CCc1nnc(CN2CCCC(Cn3nc(C)nc3C)C2)o1 (stereo not drawn) | 44.9 |
| Fc1ccc(CNCc2nnc3n2CC(C(F)(F)F)CC3)c(F)c1 (stereo not drawn) | 63 |
| CN(C)c1cc2c(nn1)CCN(C(=O)C1COc3ccccc3C1)C2 (stereo not drawn) | 20.2 |
